Please go through the items and note down their melting point.

Problem: Consider the molecule shown here: CCOC(=O)C1=C(C)N=C2SC=C(C)N2C1c1cccc(F)c1 (stereo not shown) [Compound 6c] What is its recorded melting point?
Result: 113 to 114 °C

Problem: # melting point lookup, item CCOC(=O)C1=C(C)N=C2SC=C(C)N2C1c1ccccc1Cl (stereo not shown) [Compound 6d]
Result: 114 to 115 °C

Problem: // query melting point value for entry CCOC(=O)C1=C(C)N=C2SC=C(C)N2C1c1ccc(Cl)cc1 (stereo not shown) [Compound 6e]
Result: 113 to 114 °C

Problem: Look at this molecule and give its reported melting point. CCOC(=O)C1=C(C)N=C2SC=C(C)N2C1c1ccccc1 (stereo not shown) [Compound 6a]
Result: 110 to 111 °C

Problem: melting point for CCOC(=O)C1=C(C)N=C2SC=C(C)N2C1c1ccccc1F (stereo not shown) [Compound 6b] ?
Result: 111 to 112 °C

Problem: Please look up its melting point: CCOC(=O)C1=C(C)N=C2SC=C(C)N2C1c1ccc(O)c(OC)c1 (stereo not shown) [Compound 6j]
Result: 121 to 122 °C

Problem: # query: melting point of entry CCOC(=O)C1=C(C)N=C2SC=C(C)N2C1c1ccc(C)cc1 (stereo not shown) [Compound 6h]
Result: 114 to 115 °C

Problem: What does the record list as melting point for CCOC(=O)C1=C(C)N=C2SC=C(C)N2C1c1cccc([N+](=O)[O-])c1 (stereo not shown) [Compound 6g] ?
Result: 151 to 152 °C

Problem: Value lookup for melting point; key = CCOC(=O)C1=C(C)N=C2SC=C(C)N2C1c1cccc(Br)c1 (stereo not shown) [Compound 6f]
Result: 112 to 113 °C

Problem: Param item = CCOC(=O)C1=C(C)N=C2SC=C(C)N2C1c1ccc(OC)cc1 (stereo not shown) [Compound 6i] ; retrieve measured melting point.
Result: 111 to 112 °C
